Measured values drawn from ChEMBL document CHEMBL5303573 for this set.

Conditions: bacteroides stercoris, 12 h, 2 µM
Description: The drug is tested on Bacteroides stercoris strain: ATCC43183 for biotransformation. The drug concentrations were measured before and after a 12-h incubation by liquid-chromatography-coupled mass spectrometry (LC–MS)
Non-standard residues stand in square brackets, D forms with d. Residues, ends and D or L forms follow the SMILES beside them. pGlu = O=C1CC[C@@H](C(=O)O)N1; Thz = O=C(O)[C@@H]1CSCN1
Observed property: Bacterial Biotransformation

{"columns": ["Molecule", "Bacterial Biotransformation"],
 "data": [
  ["CN(C)C(=O)C(CCN1CCC(O)(c2ccc(Cl)cc2)CC1)(c1ccccc1)c1ccccc1 [LOPERAMIDE]", "Compound metabolized"],
  ["c1ccc([C@H]2CN3CCSC3=N2)cc1", "Compound metabolized"],
  ["OC(c1cc(C(F)(F)F)nc2c(C(F)(F)F)cccc12)C1CCCCN1 (stereo not drawn)", "Compound NOT metabolized"],
  ["O=C1[C@H](CC[C@H](O)c2ccc(F)cc2)[C@@H](c2ccc(O)cc2)N1c1ccc(F)cc1", "Compound NOT metabolized"],
  ["CC(C)c1nc(CN(C)C(=O)N[C@H](C(=O)N[C@@H](Cc2ccccc2)C[C@H](O)[C@H](Cc2ccccc2)NC(=O)OCc2cncs2)C(C)C)cs1", "Compound NOT metabolized"]
]}

For every listed record, write down its Bacterial Biotransformation.
1. O=C1CC[C@@H](C(=O)N2CSC[C@H]2C(=O)O)N1 [PIDOTIMOD] ([pGlu]-[Thz]-OH)
2. COc1cc2nc(N(C)CCCNC(=O)C3CCCO3)nc(N)c2cc1OC (stereo not drawn)
3. CN(C)CC(c1ccc(O)cc1)C1(O)CCCCC1.O=C(O)CCC(=O)O (stereo not drawn) [DESVENLAFAXINE SUCCINATE]

RESULT:
["Compound metabolized", "Compound NOT metabolized", "Compound NOT metabolized"]

----------
Conditions: parabacteroides distasonis, 12 h, 2 µM
Description: The drug is tested on Parabacteroides distasonis strain: ATCC8503 for biotransformation. The drug concentrations were measured before and after a 12-h incubation by liquid-chromatography-coupled mass spectrometry (LC–MS)

{"columns": ["Compound", "Bacterial Biotransformation"],
 "data": [
  ["CN(C/C=C/C#CC(C)(C)C)Cc1cccc2ccccc12", "Compound NOT metabolized"],
  ["CC(C)c1nc(CN(C)C(=O)N[C@H](C(=O)N[C@@H](Cc2ccccc2)C[C@H](O)[C@H](Cc2ccccc2)NC(=O)OCc2cncs2)C(C)C)cs1", "Compound NOT metabolized"],
  ["CCCC1O[C@@H]2C[C@H]3[C@@H]4CCC5=CC(=O)C=C[C@]5(C)[C@H]4[C@@H](O)C[C@]3(C)[C@]2(C(=O)CO)O1 (some centres undefined) [BUDESONIDE]", "Compound NOT metabolized"],
  ["Cc1cn([C@H]2C[C@H](N=[N+]=[N-])[C@@H](CO)O2)c(=O)[nH]c1=O", "Compound NOT metabolized"]
]}

----------
Assay: The drug is tested on Bifidobacterium longum subsp. Infantis strain: CCUG52486 for biotransformation. The drug concentrations were measured before and after a 12-h incubation by liquid-chromatography-coupled mass spectrometry (LC–MS)
Conditions: 2 µM
Observed property: Bacterial Biotransformation

Examples with their reported Bacterial Biotransformation follow.
{"columns": ["Compound", "Bacterial Biotransformation"],
 "data": [
  ["COc1ccc2[nH]c([S+]([O-])Cc3ncc(C)c(OC)c3C)nc2c1 (stereo not drawn)", "Compound metabolized"],
  ["O=P(O)(O)O.c1ccc(CN(CC2=NCCN2)c2ccccc2)cc1 [ANTAZOLINE PHOSPHATE]", "Compound NOT metabolized"],
  ["CCc1oc2ccccc2c1C(=O)c1cc(Br)c(O)c(Br)c1", "Compound NOT metabolized"],
  ["CN(C)C(=O)Oc1cccc([N+](C)(C)C)c1.[Br-] [NEOSTIGMINE BROMIDE]", "Compound NOT metabolized"],
  ["CN(C)CCc1c[nH]c2ccc(CS(=O)(=O)N3CCCC3)cc12", "Compound NOT metabolized"],
  ["Cc1ccc(S(=O)(=O)NC(=O)NN2CCCCCC2)cc1 [TOLAZAMIDE]", "Compound metabolized"],
  ["COc1ccc(CN2CCNCC2)c(OC)c1OC.Cl.Cl [TRIMETAZIDINE DIHYDROCHLORIDE]", "Compound metabolized"]
]}

QUERY: // Input: CC[C@H](C)C(=O)O[C@H]1CCC=C2C=C[C@H](C)[C@H](CC[C@@H]3C[C@@H](O)CC(=O)O3)[C@H]21 . Output its Bacterial Biotransformation only.
RESULT: Compound metabolized
